Would you kindly list MIC for each of these compounds?
- Test system: Enterococcus faecalis S613 HM-334
- test_protocol: MIC, broth microdilution (CLSI)
- Format: cell-based
- setup_conditions: Enterococcus faecalis, S613HM334, Table 5; TSB; read-out: MIC
- Protocol: The minimum inhibitory concentrations (MICs) of the compounds and control drugs were determined using the broth microdilution method, according to guidelines outlined by the Clinical and Laboratory Standards Institute (CLSI). […]
Field format: number, assumed µg/mL, no unit text.

(Q) Given CCN[C@H]1CN(CCCOC)S(=O)(=O)c2sc(S(N)(=O)=O)cc21 [Brinzolamide] , state its recorded MIC.
(A) 2

(Q) What does the record list as MIC for CCN[C@H]1C[C@H](C)S(=O)(=O)c2sc(S(N)(=O)=O)cc21 [Dorzolamide] ?
(A) 8

(Q) Param item = CCOc1ccc2nc(S(N)(=O)=O)sc2c1 [Ethoxzolamide] ; retrieve measured MIC.
(A) 1
